assay: RP, Phenomenex Synergi Hydro-RP, 150 × 2 mm, 4 µm, 30 °C, 0.5 mL/min, estimated dead time 0.6 min; A: water + 0.1% formic acid, pH 3; B: acetonitrile + 0.1% formic acid, pH 3; gradient (min/%B) 0/5 1/5 35/45 40/100 45/100; details: stereoisomer not certain
LC retention time values for the molecules below.
experimental_readout: LC retention time (min)

{"columns": ["molecule", "experimental_readout", "reported"],
 "data": [
  ["O=c1oc2cc(O)ccc2c2ccc(O)cc12", "LC retention time", 21],
  ["COc1cc(C(=O)O)ccc1O", "LC retention time", 9.27],
  ["CC12CCc3occc3C1CCC13CC(CCC12)C(O)(CO)C3 (stereo unspecified)", "LC retention time", 37.9],
  ["O=C(O)CCc1ccc(O)cc1", "LC retention time", 11.7],
  ["Oc1cc(O)c2c(c1)OC(c1ccc(O)c(O)c1)C(O)C2 (single isomer, unassigned; (-)) [(-)-Epicatechin]", "LC retention time", 11.3],
  ["COc1cc(/C=C/C(=O)O)ccc1O", "LC retention time", 14.4],
  ["O=c1cc(-c2ccc(O)cc2)oc2cc(OC3OC(CO)C(O)C(O)C3O)cc(O)c12 (stereo unspecified) [Apigenin 7-O-glucoside]", "LC retention time", 17.9],
  ["COc1ccc(-c2cc(=O)c3c(OC)c(OC)c(OC)c(OC)c3o2)cc1", "LC retention time", 36.5],
  ["COc1cc(C=CC(=O)O)cc(OC)c1O", "LC retention time", 15.2],
  ["COc1ccc(C2CC(=O)c3c(O)cc(O)cc3O2)cc1O (stereo unspecified)", "LC retention time", 26.6],
  ["O=c1c(OS(=O)(=O)O)c(-c2ccc(O)c(O)c2)oc2cc(O)cc(O)c12 [Quercetin 3-O-sulfate]", "LC retention time", 20.2]
]}
